The reported numbers originate from patent US20240262833A1.

measurement.target: human metabotropic glutamate 7 receptor (hmGlu7) (Homo sapiens, UniProt Q14831)
Sequence (Q14831 35-922 isoform Q14831-2): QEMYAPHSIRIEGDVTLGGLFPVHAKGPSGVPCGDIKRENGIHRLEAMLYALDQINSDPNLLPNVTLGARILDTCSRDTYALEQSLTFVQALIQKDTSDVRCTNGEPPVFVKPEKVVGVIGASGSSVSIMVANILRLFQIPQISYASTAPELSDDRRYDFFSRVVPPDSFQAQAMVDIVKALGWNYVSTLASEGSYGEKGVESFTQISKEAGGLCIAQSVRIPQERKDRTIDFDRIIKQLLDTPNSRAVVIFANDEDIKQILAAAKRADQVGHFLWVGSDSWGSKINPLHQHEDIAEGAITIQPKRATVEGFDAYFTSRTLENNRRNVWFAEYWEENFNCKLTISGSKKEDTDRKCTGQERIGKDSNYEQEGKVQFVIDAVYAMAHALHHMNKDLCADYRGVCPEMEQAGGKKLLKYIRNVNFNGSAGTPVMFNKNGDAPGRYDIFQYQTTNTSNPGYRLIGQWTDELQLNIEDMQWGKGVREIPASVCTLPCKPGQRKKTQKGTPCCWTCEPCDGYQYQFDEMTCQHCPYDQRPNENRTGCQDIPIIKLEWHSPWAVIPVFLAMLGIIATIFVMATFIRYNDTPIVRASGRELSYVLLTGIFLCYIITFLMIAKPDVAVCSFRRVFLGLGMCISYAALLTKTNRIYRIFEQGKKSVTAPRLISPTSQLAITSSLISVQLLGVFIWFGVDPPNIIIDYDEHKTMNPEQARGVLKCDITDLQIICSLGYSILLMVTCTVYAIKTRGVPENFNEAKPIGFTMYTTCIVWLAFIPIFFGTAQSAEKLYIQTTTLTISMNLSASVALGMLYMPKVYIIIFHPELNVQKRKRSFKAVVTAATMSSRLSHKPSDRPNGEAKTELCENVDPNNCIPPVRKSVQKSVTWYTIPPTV
protocol.description: mGlu7 assay on HEK-expressing human mGlu7: fluorescent cell based Ca2+ mobilization assay (FLIPR), inhibition of EC80 L-AP4 response
assay.conditions: HEK-293 cells expressing hmGlu7; EC80 L-AP4 stimulation; mean of at least three independent experiments in duplicate; read-out: Ca2+ Flux (mean IC50)
pIC50: −log10 of the molar value.
readout.kind: pIC50

Dear colleague, I am looking for the recorded pIC50 of the following compound: COc1cc(OC)cc(-n2c(C)c3cnn(-c4ccccn4)c(=O)c3c2C)c1
6.00 to 7.00

Try this compound next: CCc1c2c(=O)n(-c3ccccn3)ncc2c(C)n1-c1cccc(OC)c1
6.00 to 7.00

Try this compound next: Cc1c2cnn(-c3ccccc3)c(=O)c2c(C)n1-c1ccc(Cl)cc1
6.00 to 7.00

Try this compound next: COc1cccc(-n2c(C)c3cnn(-c4ccc(S(C)(=O)=O)cc4)c(=O)c3c2C)c1
> 7.00

Try this compound next: COc1cccc(-n2c(C)c3cnn(-c4ccc(C(=O)N(C)C)cc4)c(=O)c3c2C)c1
6.00 to 7.00

Try this compound next: COc1cccc(-n2c(C)c3cnn(-c4ccccc4)c(=O)c3c2C)c1
> 7.00

Try this compound next: COc1cccc(-n2c(C)c3cnn(-c4cccc(C(=O)N(C)C)c4)c(=O)c3c2C)c1
6.00 to 7.00

Try this compound next: Cc1c2cnn(-c3ncc(F)cn3)c(=O)c2c(C)n1-c1cc(F)cc(N2CCC2)c1
> 7.00

Try this compound next: COc1cccc(-n2c(C)c3cnn(-c4ccccc4OC)c(=O)c3c2C)c1
6.00 to 7.00

----------
measurement.target: human metabotropic glutamate 7 receptor (hmGlu7) (Homo sapiens)
Construct: expressed in transfected cells
protocol.description: mGlu7 assay on HEK-expressing human mGlu7: fluorescent cell based Ca2+ mobilization assay (FLIPR), inhibition of EC80 L-AP4 response
assay.conditions: HEK-293 cells expressing hmGlu7; EC80 L-AP4 stimulation; mean of at least three independent experiments in duplicate; read-out: Ca2+ Flux (mean IC50)
I'd appreciate it if you could supply IC50 values for the items below.

Give human metabotropic glutamate 7 receptor (hmGlu7) (Homo sapiens) IC50 for CC(=O)c1ccc(-n2ncc3c(C)n(-c4ccccc4)c(C)c3c2=O)cc1
100 to 1000 nM

Try this compound next: Cc1c2cnn(-c3ncccc3F)c(=O)c2c(C)n1-c1cc(F)cc(N2CCC2)c1
< 100 nM

Try this compound next: COc1ccc(-n2c(C)c3cnn(-c4ccccc4)c(=O)c3c2C)cc1
100 to 1000 nM

Try this compound next: COc1cccc(-n2c(C)c3cnn(-c4ccc(C(C)(C)O)cn4)c(=O)c3c2C)c1
< 100 nM

Try this compound next: COc1ccc(-n2c(C)c3cnn(-c4cccnc4)c(=O)c3c2C)cc1
100 to 1000 nM

Try this compound next: Cc1c2cnn(-c3ccccc3Cl)c(=O)c2c(C)n1-c1ccccc1
100 to 1000 nM

----------
I'd appreciate it if you could supply pIC50 values for the items below.
measurement.target: human metabotropic glutamate 7 receptor (hmGlu7) (Homo sapiens, UniProt Q14831)
protocol.description: mGlu7 assay on HEK-expressing human mGlu7: fluorescent cell based Ca2+ mobilization assay (FLIPR), inhibition of EC80 L-AP4 response
assay.conditions: HEK-293 cells expressing hmGlu7; EC80 L-AP4 stimulation; mean of at least three independent experiments in duplicate; read-out: Ca2+ Flux (mean IC50)
pIC50: −log10 of the molar value.

Dear colleague, I am looking for the recorded pIC50 of the following compound: COc1ccc(-n2c(C)c3cnn(-c4ccc(CO)cc4)c(=O)c3c2C)cc1
6.00 to 7.00

Try this compound next: Cc1c2cnn(-c3ccccn3)c(=O)c2c(C)n1-c1cccc(N2CCCC2=O)c1
5.00 to 6.00

Try this compound next: Cc1ccc(-n2c(C)c3cnn(-c4ccccn4)c(=O)c3c2C)c(C)c1
6.00 to 7.00

Try this compound next: COc1ccccc1-n1c(C)c2cnn(-c3ccccn3)c(=O)c2c1C
5.00 to 6.00

Try this compound next: COc1ccc(-n2c(C)c3cnn(-c4cccc(C#N)c4)c(=O)c3c2C)cc1
6.00 to 7.00

Try this compound next: Cc1ccc(-n2c(C)c3cnn(-c4ccccc4)c(=O)c3c2C)c(C)c1
6.00 to 7.00

Try this compound next: COc1cccc(-n2c(C)c3cnn(-c4ccc(-c5ccccc5)cc4)c(=O)c3c2C)c1
6.00 to 7.00

Try this compound next: COc1cccc(-n2c(C)c3cnn(-c4ccc(OC)nc4)c(=O)c3c2C)c1
6.00 to 7.00

Try this compound next: COc1ccnc(-n2ncc3c(C)n(-c4cccc(N5CCC5)c4)c(C)c3c2=O)c1
6.00 to 7.00

Try this compound next: COc1cccc(-n2c(C)c3cnn(-c4cccc(CNC(C)=O)c4)c(=O)c3c2C)c1
6.00 to 7.00

Try this compound next: COc1cccc(-n2c(C)c3cnn(-c4ccc(O)cc4)c(=O)c3c2C)c1
> 7.00

Try this compound next: COc1ccc(-n2ncc3c(C)n(-c4cccc(OC)c4)c(C)c3c2=O)cc1
> 7.00

Try this compound next: COc1cccc(-n2c(C)c3cnn(-c4ccc(N5CCOCC5)cc4)c(=O)c3c2C)c1
6.00 to 7.00

Try this compound next: Cc1c2cnn(-c3ncccc3F)c(=O)c2c(C)n1-c1cccc2c1ccn2C1CC1
> 7.00

Try this compound next: Cc1c2cnn(-c3ccccc3)c(=O)c2c(C)n1-c1cccc(N2CCCC2)c1
6.00 to 7.00

Try this compound next: CCOc1ccc(-n2ncc3c(C)n(-c4ccccc4)c(C)c3c2=O)cc1
6.00 to 7.00

Try this compound next: Cc1c2cnn(-c3ccc(C(N)=O)cc3)c(=O)c2c(C)n1-c1ccccc1
6.00 to 7.00

Try this compound next: Cc1c2cnn(-c3ncccn3)c(=O)c2c(C)n1-c1cccc(OC2CC2)c1F
> 7.00

Try this compound next: COc1cccc(-n2c(C)c3cnn(-c4cccc(C(C)=O)c4)c(=O)c3c2C)c1
6.00 to 7.00

----------
measurement.target: human metabotropic glutamate 7 receptor (hmGlu7) (Homo sapiens, UniProt Q14831)
protocol.description: mGlu7 assay on HEK-expressing human mGlu7: fluorescent cell based Ca2+ mobilization assay (FLIPR), inhibition of EC80 L-AP4 response
assay.conditions: HEK-293 cells expressing hmGlu7; EC80 L-AP4 stimulation; mean of at least three independent experiments in duplicate; read-out: Ca2+ Flux (mean IC50)
I'd appreciate it if you could supply IC50 values for the items below.

Dear colleague, I am looking for the recorded IC50 of the following compound: COc1cccc(-n2c(C)c3cnn(-c4ccc(C(C)(C)C)cn4)c(=O)c3c2C)c1
100 to 1000 nM

Try this compound next: Cc1c(OC2CC2)cccc1-n1c(C)c2cnn(-c3ncccn3)c(=O)c2c1C
< 100 nM

Try this compound next: Cc1c2cnn(-c3ccccc3)c(=O)c2c(C)n1-c1ccccc1F
100 to 1000 nM

Try this compound next: Cc1c2cnn(-c3ccccn3)c(=O)c2c(C)n1-c1cccc(N(C)C)c1
100 to 1000 nM

Try this compound next: Cc1c2cnn(-c3ccccn3)c(=O)c2c(C)n1-c1cccc(-c2ccco2)c1
< 100 nM

Try this compound next: Cc1c2cnn(-c3ccccn3)c(=O)c2c(C)n1-c1cccc(C2CC2)c1
100 to 1000 nM

Try this compound next: COc1cccc(-n2c(C)c3cnn(-c4ccc(N5CCOCC5)nc4)c(=O)c3c2C)c1
100 to 1000 nM

Try this compound next: COc1cc(-n2ncc3c(C)n(-c4cccc(N5CCC5)c4)c(C)c3c2=O)ccc1CO
< 100 nM

Try this compound next: Cc1c2cnn(-c3ccccn3)c(=O)c2c(C)n1-c1ccc(C2CC2)cc1
100 to 1000 nM

----------
I'd appreciate it if you could supply IC50 values for the items below.
measurement.target: human metabotropic glutamate 7 receptor (hmGlu7) (Homo sapiens, UniProt Q14831)
protocol.description: mGlu7 assay on HEK-expressing human mGlu7: fluorescent cell based Ca2+ mobilization assay (FLIPR), inhibition of EC80 L-AP4 response
assay.conditions: HEK-293 cells expressing hmGlu7; EC80 L-AP4 stimulation; mean of at least three independent experiments in duplicate; read-out: Ca2+ Flux (mean IC50)

Dear colleague, I am looking for the recorded IC50 of the following compound: Cc1c2cnn(-c3ccccn3)c(=O)c2c(C)n1-c1cccc(-n2nccn2)c1
100 to 1000 nM

Try this compound next: Cc1c2cnn(-c3ccccn3)c(=O)c2c(C)n1-c1ccccc1
1000 to 10000 nM

Try this compound next: Cc1ccnc(-n2ncc3c(C)n(-c4cccc(N5CCC5)c4)c(C)c3c2=O)c1
< 100 nM

Try this compound next: Cc1cccc(-n2c(C)c3cnn(-c4ccccn4)c(=O)c3c2C)c1
100 to 1000 nM

Try this compound next: CCN(CC)c1cccc(-n2c(C)c3cnn(-c4ccccn4)c(=O)c3c2C)c1
100 to 1000 nM

Try this compound next: Cc1c2cnn(-c3ccccn3)c(=O)c2c(C)n1-c1cccc(N2CC(F)(F)C2)c1
100 to 1000 nM

Try this compound next: Cc1c2cnn(-c3nccs3)c(=O)c2c(C)n1-c1cccc(N2CCC2)c1
1000 to 10000 nM

Try this compound next: CC(=O)c1cccc(-n2c(C)c3cnn(-c4ccccc4)c(=O)c3c2C)c1
100 to 1000 nM

Try this compound next: Cc1cccc(-n2ncc3c(C)n(-c4cccc(N5CCC5)c4)c(C)c3c2=O)n1
100 to 1000 nM
